B1: library; numbered along this chain (parent)
chain: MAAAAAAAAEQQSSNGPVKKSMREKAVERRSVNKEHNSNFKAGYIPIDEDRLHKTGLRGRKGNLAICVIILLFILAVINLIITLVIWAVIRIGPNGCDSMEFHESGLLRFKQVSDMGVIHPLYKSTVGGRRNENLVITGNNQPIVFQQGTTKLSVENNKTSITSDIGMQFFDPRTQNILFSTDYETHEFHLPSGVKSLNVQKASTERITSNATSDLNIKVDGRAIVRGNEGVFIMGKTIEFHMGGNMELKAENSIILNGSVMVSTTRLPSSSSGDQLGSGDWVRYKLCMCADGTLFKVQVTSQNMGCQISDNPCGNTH

variants of: B1; test: SGCB cell-surface expression functional score (HA stain, bin4 vs bin1, normalised to synonymous) (log10 ratio); higher = more cell-surface SGCB (functional)
Measured SGCB cell-surface expression functional score (log10), listed per entry for reference.
Respond numerically, and do not add a unit to the figure.

These recorded examples may help you get a feel for the data.
Incoming: Specify reported SGCB cell-surface expression functional score (log10) for the variant shown: G306P
Outgoing: -1.24

Incoming: Specify reported SGCB cell-surface expression functional score (log10) for the variant shown: I82M
Outgoing: -0.24

Incoming: Specify reported SGCB cell-surface expression functional score (log10) for the variant shown: L71H
Outgoing: 0.06

Incoming: Specify reported SGCB cell-surface expression functional score (log10) for the variant shown: F40W
Outgoing: -0.21

Incoming: Specify reported SGCB cell-surface expression functional score (log10) for the variant shown: M1Q
Outgoing: 0.35

Incoming: Specify reported SGCB cell-surface expression functional score (log10) for the variant shown: G149K
Outgoing: -0.63

Incoming: Specify reported SGCB cell-surface expression functional score (log10) for the variant shown: C288V
Outgoing: -0.72

Incoming: Specify reported SGCB cell-surface expression functional score (log10) for the variant shown: L80D
Outgoing: -0.2

Further cases:
Incoming: Specify reported SGCB cell-surface expression functional score (log10) for the variant shown: C67F
Outgoing: -0.08

Incoming: Specify reported SGCB cell-surface expression functional score (log10) for the variant shown: G245C
Outgoing: 0.61

Incoming: Specify reported SGCB cell-surface expression functional score (log10) for the variant shown: V127P
Outgoing: -0.5
